# target_entity: panel of more than 300 wild-type and mutant kinases (313 kinase panel) (Homo sapiens, UniProt Q12852)
# Sequence (Q12852 1-859): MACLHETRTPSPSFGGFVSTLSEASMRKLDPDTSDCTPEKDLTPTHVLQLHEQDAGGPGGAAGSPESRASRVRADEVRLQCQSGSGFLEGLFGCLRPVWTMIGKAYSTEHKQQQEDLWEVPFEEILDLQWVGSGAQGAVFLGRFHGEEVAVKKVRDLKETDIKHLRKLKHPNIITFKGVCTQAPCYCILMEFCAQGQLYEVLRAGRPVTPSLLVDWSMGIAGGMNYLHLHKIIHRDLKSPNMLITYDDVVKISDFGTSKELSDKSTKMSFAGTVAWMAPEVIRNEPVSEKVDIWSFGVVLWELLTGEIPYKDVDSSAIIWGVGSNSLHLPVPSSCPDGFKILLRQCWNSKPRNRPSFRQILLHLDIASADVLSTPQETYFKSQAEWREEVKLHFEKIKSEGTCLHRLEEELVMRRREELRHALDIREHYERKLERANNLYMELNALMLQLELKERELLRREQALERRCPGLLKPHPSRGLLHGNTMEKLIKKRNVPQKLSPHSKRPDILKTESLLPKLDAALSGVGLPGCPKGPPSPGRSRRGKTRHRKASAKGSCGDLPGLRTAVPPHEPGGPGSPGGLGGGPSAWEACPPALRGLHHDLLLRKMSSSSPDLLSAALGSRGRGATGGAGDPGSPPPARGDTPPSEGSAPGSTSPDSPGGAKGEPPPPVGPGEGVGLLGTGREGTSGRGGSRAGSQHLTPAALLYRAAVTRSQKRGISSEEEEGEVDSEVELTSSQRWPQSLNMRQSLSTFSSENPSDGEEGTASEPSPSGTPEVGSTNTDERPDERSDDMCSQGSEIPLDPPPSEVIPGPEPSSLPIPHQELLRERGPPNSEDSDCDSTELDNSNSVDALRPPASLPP
# test_summary: Kinase profiling in a biochemical assay panel (mobility shift assays and ELISA), %-inhibition at 1 μM; selectivity entropy
# condition_info: kinase DLK; compound at 1 μM
Please mark Met if the recorded %-inhibition of DLK is equal to or greater than 40%, and Not met if it falls below.

compound: CO[C@H]1C[C@@H]2CC[C@@H](C)[C@@](O)(O2)C(=O)C(=O)N2CCCC[C@H]2C(=O)O[C@H]([C@H](C)C[C@@H]2CC[C@@H](OC(=O)C(C)(CO)CO)[C@H](OC)C2)CC(=O)[C@H](C)/C=C(\C)[C@@H](O)[C@@H](OC)C(=O)[C@H](C)C[C@H](C)/C=C/C=C/C=C/1C [temsirolimus]
answer_label: Not met

compound: CS(=O)(=O)CCNCc1ccc(-c2ccc3ncnc(Nc4ccc(OCc5cccc(F)c5)c(Cl)c4)c3c2)o1 [lapatinib]
answer_label: Not met

compound: C[C@@H](Oc1cc(-c2cnn(C3CCNCC3)c2)cnc1N)c1c(Cl)ccc(F)c1Cl [crizotinib]
answer_label: Met

compound: Cc1ccc(C(=O)Nc2ccc(CN3CCN(C)CC3)c(C(F)(F)F)c2)cc1C#Cc1cnc2cccnn12 [ponatinib]
answer_label: Met

compound: CC(C)(C)c1nc(-c2cccc(NS(=O)(=O)c3c(F)cccc3F)c2F)c(-c2ccnc(N)n2)s1 [dabrafenib]
answer_label: Not met

compound: CC(=O)Nc1cccc(-n2c(=O)n(C3CC3)c(=O)c3c(Nc4ccc(I)cc4F)n(C)c(=O)c(C)c32)c1 [trametinib]
answer_label: Not met

compound: COc1cc2nccc(Oc3ccc(NC(=O)C4(C(=O)Nc5ccc(F)cc5)CC4)cc3)c2cc1OC [cabozantinib]
answer_label: Not met

====

Quick reference: %-inhibition, BLK of the listed items.
# target_entity: panel of more than 300 wild-type and mutant kinases (313 kinase panel) (Homo sapiens, UniProt P51451)
# Sequence (P51451 whole entry, change not shown): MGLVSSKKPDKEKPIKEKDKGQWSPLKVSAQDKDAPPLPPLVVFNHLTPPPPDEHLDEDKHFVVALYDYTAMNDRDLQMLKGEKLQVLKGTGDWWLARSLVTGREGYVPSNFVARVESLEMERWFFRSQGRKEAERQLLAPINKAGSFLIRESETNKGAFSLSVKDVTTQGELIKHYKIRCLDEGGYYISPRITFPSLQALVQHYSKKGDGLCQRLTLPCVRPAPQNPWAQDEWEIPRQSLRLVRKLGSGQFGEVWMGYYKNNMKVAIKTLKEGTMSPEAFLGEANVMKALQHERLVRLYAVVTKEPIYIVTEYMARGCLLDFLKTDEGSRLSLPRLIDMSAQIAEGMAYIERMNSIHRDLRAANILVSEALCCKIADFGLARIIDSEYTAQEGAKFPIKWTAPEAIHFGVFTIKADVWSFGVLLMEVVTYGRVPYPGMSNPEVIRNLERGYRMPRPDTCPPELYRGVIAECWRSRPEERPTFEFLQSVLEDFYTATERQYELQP
# test_summary: Kinase profiling in a biochemical assay panel (mobility shift assays and ELISA), %-inhibition at 1 μM; selectivity entropy
# condition_info: kinase BLK; 1 μM compound

compound: CO[C@H]1C[C@@H]2CC[C@@H](C)[C@@](O)(O2)C(=O)C(=O)N2CCCC[C@H]2C(=O)O[C@H]([C@H](C)C[C@@H]2CC[C@@H](OC(=O)C(C)(CO)CO)[C@H](OC)C2)CC(=O)[C@H](C)/C=C(\C)[C@@H](O)[C@@H](OC)C(=O)[C@H](C)C[C@H](C)/C=C/C=C/C=C/1C [temsirolimus]
%-inhibition, BLK / %: -12
//
compound: CO[C@H]1C[C@@H]2CC[C@@H](C)[C@@](O)(O2)C(=O)C(=O)N2CCCC[C@H]2C(=O)O[C@H]([C@H](C)C[C@@H]2CC[C@@H](OCCO)[C@H](OC)C2)CC(=O)[C@H](C)/C=C(\C)[C@@H](O)[C@@H](OC)C(=O)[C@H](C)C[C@H](C)/C=C/C=C/C=C/1C [everolimus]
%-inhibition, BLK / %: -7
//
compound: Cc1ccc(Nc2nccc(N(C)c3ccc4c(C)n(C)nc4c3)n2)cc1S(N)(=O)=O [pazopanib]
%-inhibition, BLK / %: 62

====

# target_entity: panel of more than 300 wild-type and mutant kinases (313 kinase panel) (Homo sapiens, UniProt P49841)
# test_summary: Kinase profiling in a biochemical assay panel (mobility shift assays and ELISA), %-inhibition at 1 μM; selectivity entropy
# condition_info: kinase GSK3β; compound at 1 μM
Quick reference: %-inhibition of GSK3β of the listed items.

smiles_text: CCCS(=O)(=O)Nc1ccc(F)c(C(=O)c2c[nH]c3ncc(-c4ccc(Cl)cc4)cc23)c1F
%-inhibition of GSK3β: 8%

smiles_text: CNC(=O)c1cc(Oc2ccc(NC(=O)Nc3ccc(Cl)c(C(F)(F)F)c3)c(F)c2)ccn1
%-inhibition of GSK3β: 11%

smiles_text: CS(=O)(=O)CCNCc1ccc(-c2ccc3ncnc(Nc4ccc(OCc5cccc(F)c5)c(Cl)c4)c3c2)o1
%-inhibition of GSK3β: -10%

smiles_text: CC(=O)Nc1cccc(-n2c(=O)n(C3CC3)c(=O)c3c(Nc4ccc(I)cc4F)n(C)c(=O)c(C)c32)c1
%-inhibition of GSK3β: -15%

smiles_text: O=S(=O)(c1cccc2cnccc12)N1CCCNCC1
%-inhibition of GSK3β: -8%

smiles_text: C[C@@H](Oc1cc(-c2cnn(C3CCNCC3)c2)cnc1N)c1c(Cl)ccc(F)c1Cl
%-inhibition of GSK3β: -2.11%

smiles_text: Cc1cn(-c2cc(NC(=O)c3ccc(C)c(Nc4nccc(-c5cccnc5)n4)c3)cc(C(F)(F)F)c2)cn1
%-inhibition of GSK3β: 10%

====

# target_entity: panel of more than 300 wild-type and mutant kinases (313 kinase panel) (Homo sapiens)
# test_summary: Kinase profiling in a biochemical assay panel (mobility shift assays and ELISA), %-inhibition at 1 μM; selectivity entropy
# condition_info: kinase PDGFRβ; 1 μM

compound: C[C@@H](Oc1cc(-c2cnn(C3CCNCC3)c2)cnc1N)c1c(Cl)ccc(F)c1Cl [crizotinib]
%-inhibition of PDGFRβ (%): 18
--
compound: CC(=O)Nc1cccc(-n2c(=O)n(C3CC3)c(=O)c3c(Nc4ccc(I)cc4F)n(C)c(=O)c(C)c32)c1 [trametinib]
%-inhibition of PDGFRβ (%): 3.44
--
compound: CO[C@H]1C[C@@H]2CC[C@@H](C)[C@@](O)(O2)C(=O)C(=O)N2CCCC[C@H]2C(=O)O[C@H]([C@H](C)C[C@@H]2CC[C@@H](OC(=O)C(C)(CO)CO)[C@H](OC)C2)CC(=O)[C@H](C)/C=C(\C)[C@@H](O)[C@@H](OC)C(=O)[C@H](C)C[C@H](C)/C=C/C=C/C=C/1C [temsirolimus]
%-inhibition of PDGFRβ (%): -2.27
--
compound: Cc1ccc(Nc2nccc(N(C)c3ccc4c(C)n(C)nc4c3)n2)cc1S(N)(=O)=O [pazopanib]
%-inhibition of PDGFRβ (%): 96

====

Quick reference: %-inhibition, BRSK1 of the listed items.
# target_entity: panel of more than 300 wild-type and mutant kinases (313 kinase panel) (Homo sapiens)
# test_summary: Kinase profiling in a biochemical assay panel (mobility shift assays and ELISA), %-inhibition at 1 μM; selectivity entropy
# condition_info: kinase BRSK1; 1 μM compound

compound: O=S(=O)(c1cccc2cnccc12)N1CCCNCC1 [fasudil]
%-inhibition, BRSK1: -0.211%
//
compound: CS(=O)(=O)CCNCc1ccc(-c2ccc3ncnc(Nc4ccc(OCc5cccc(F)c5)c(Cl)c4)c3c2)o1 [lapatinib]
%-inhibition, BRSK1: 2%
//
compound: CNC(=O)c1cc(Oc2ccc(NC(=O)Nc3ccc(Cl)c(C(F)(F)F)c3)c(F)c2)ccn1 [regorafenib]
%-inhibition, BRSK1: -17%

====

# System: panel of more than 300 wild-type and mutant kinases (313 kinase panel)
# test_summary: Kinase profiling in a biochemical assay panel (mobility shift assays and ELISA), %-inhibition at 1 μM; selectivity entropy
# condition_info: kinase EGFR(d746-750/T790M); compound at 1 μM
Quick reference: %-inhibition of EGFR(d746-750/T790M) of the listed items.

molecule: CO[C@H]1C[C@@H]2CC[C@@H](C)[C@@](O)(O2)C(=O)C(=O)N2CCCC[C@H]2C(=O)O[C@H]([C@H](C)C[C@@H]2CC[C@@H](OC(=O)C(C)(CO)CO)[C@H](OC)C2)CC(=O)[C@H](C)/C=C(\C)[C@@H](O)[C@@H](OC)C(=O)[C@H](C)C[C@H](C)/C=C/C=C/C=C/1C
%-inhibition of EGFR(d746-750/T790M): -0.33%
//
molecule: COc1cc2nccc(Oc3ccc(NC(=O)C4(C(=O)Nc5ccc(F)cc5)CC4)cc3)c2cc1OC [cabozantinib]
%-inhibition of EGFR(d746-750/T790M): 43%
//
molecule: CC(=O)Nc1cccc(-n2c(=O)n(C3CC3)c(=O)c3c(Nc4ccc(I)cc4F)n(C)c(=O)c(C)c32)c1
%-inhibition of EGFR(d746-750/T790M): 1.72%
